Hey, just so you know, these numbers are from PubChem BioAssay AID1918949.

Test system: K24384-001-R-PDC complex spheroid viability
Test: Anticancer human tumor K24384-001-R-PDC patient-derived pancreatic adenocarcinoma cell line growth inhibition
Details: second compound 0.1 µM; first compound 0.1 µM; stronger effect = lower value
OBSERVED PROPERTY: viability, T/C (%)
Supply the numeric figure in %, leaving out any unit text.

Solved entries:
INSERT INTO results (molecule, observed_property, value_units, reported) VALUES
  ('Nc1ncn(C2CC(O)C(CO)O2)c(=O)n1 (stereo unspecified) + NC1CCC(NC2CC2c2ccccc2)CC1', 'viability, T/C', '%', 73.6),
  ('COc1cc(Nc2ncc3c(n2)-c2ccc(Cl)cc2C(c2c(F)cccc2OC)=NC3)ccc1C(=O)O + NC1CCC(NC2CC2c2ccccc2)CC1', 'viability, T/C', '%', 54.5),
  ('Nc1ncn(C2CC(O)C(CO)O2)c(=O)n1 (stereo unspecified) + NC1CC1c1ccc(-c2cccc(O)c2)cc1', 'viability, T/C', '%', 80.2),
  ('O=C(C=Cn1cnc(-c2cc(C(F)(F)F)cc(C(F)(F)F)c2)n1)NNc1cnccn1 + NC1CCC(NC2CC2c2ccccc2)CC1', 'viability, T/C', '%', 36.2),
  ('CC(C)CC(NC(=O)CNC(=O)c1cc(Cl)ccc1Cl)B1OC(=O)CC(CC(=O)O)(C(=O)O)O1 (stereo unspecified) + NC1CC1c1ccc(-c2cccc(O)c2)cc1', 'viability, T/C', '%', 0.93);

Kindly consider the entry below.
Request: State, in one line, measured viability, T/C of Cn1ncnc1C1c2n[nH]c(=O)c3cc(F)cc(c23)NC1c1ccc(F)cc1 (stereo unspecified) + NC1CC1c1ccc(-c2cccc(O)c2)cc1
Response: 77.8

---

Listed here are compounds together with their documented pIC50.
Tested on: K24384-001-R-PDC complex spheroid viability
Test: Anticancer human tumor K24384-001-R-PDC cell line growth inhibition;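 also: spheroids exposed to agents for seven days before luminescence viability reading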
Conditions: curve of first compound; second compound 3.16 µM
pIC50 is a log-scale quantity: -log10 of the concentration expressed in molar.

Solved entries (count: 4):
INSERT INTO measurements (compound, reported) VALUES
  ('O=C(C=Cc1cccc(S(=O)(=O)Nc2ccccc2)c1)NO + NC1CCC(NC2CC2c2ccccc2)CC1', 6.58),
  ('CC(C)CC(NC(=O)CNC(=O)c1cc(Cl)ccc1Cl)B1OC(=O)CC(CC(=O)O)(C(=O)O)O1 (stereo not drawn) + NC1CC1c1ccc(-c2cccc(O)c2)cc1', 8.06),
  ('CC1COCCN1c1cc(-c2ccnn2C)c2ccnc(-c3ccn[nH]3)c2n1 (stereo not drawn) + NC1CCC(NC2CC2c2ccccc2)CC1', 8.04),
  ('Nc1ccccc1NC(=O)c1ccc(CNC(=O)OCc2cccnc2)cc1 + NC1CCC(NC2CC2c2ccccc2)CC1', 6.40);

--- query ---
Request: Jot down pIC50 (K24384-001-R-PDC complex spheroid viability) of O=C(C=Cn1cnc(-c2cc(C(F)(F)F)cc(C(F)(F)F)c2)n1)NNc1cnccn1 + NC1CCC(NC2CC2c2ccccc2)CC1 .
Response: 7.45

---

Test system: K24384-001-R-PDC complex spheroid viability
Assay: Anticancer human tumor K24384-001-R-PDC cell line growth inhibition; active means viability on the fitted dose curve at most 10% of control; inactive means the rest;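 also: spheroids exposed to agents for seven days before luminescence viability reading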
Conditions: second compound 3.16 µM; first compound 0.1 µM
A correct response names exactly one class from label 1 for active, label 0 for inactive

Solved entries (count: 4):
INSERT INTO measurements (molecule, class) VALUES
  ('Nc1ncn(C2CC(O)C(CO)O2)c(=O)n1 (stereo not given) + NC1CC1c1ccc(-c2cccc(O)c2)cc1', 'label 0'),
  ('CC1(C)CCC(CN2CCN(c3ccc(C(=O)NS(=O)(=O)c4ccc(NCC5CCOCC5)c([N+](=O)[O-])c4)c(Oc4cnc5[nH]ccc5c4)c3)CC2)=C(c2ccc(Cl)cc2)C1 + NC1CCC(NC2CC2c2ccccc2)CC1', 'label 0'),
  ('CC(C)CC(NC(=O)CNC(=O)c1cc(Cl)ccc1Cl)B1OC(=O)CC(CC(=O)O)(C(=O)O)O1 (stereo not given) + NC1CC1c1ccc(-c2cccc(O)c2)cc1', 'label 1'),
  ('CC[C@@]1(O)C(=O)OCc2c1cc1n(c2=O)Cc2cc3c(CN(C)C)c(O)ccc3nc2-1 + NC1CCC(NC2CC2c2ccccc2)CC1', 'label 0');

Moving on to the next molecule.
Request: Could you please tell me the result logged for O=C(C=Cn1cnc(-c2cc(C(F)(F)F)cc(C(F)(F)F)c2)n1)NNc1cnccn1 + NC1CC1c1ccc(-c2cccc(O)c2)cc1 in this assay?
Response: label 0
